These data points were gathered from PubChem BioAssay (EPA / NIEHS).

biological target: Cellular tumor antigen p53 (Homo sapiens) (UniProt P04637); experiment: TOX21_p53_BLA_p2_ratio: Tox21 HCT-116 p53 Agonism Beta-lactamase Assay, Ratio, Phase 2 (AID 2283592)
Sequence (P04637 whole entry, looked up): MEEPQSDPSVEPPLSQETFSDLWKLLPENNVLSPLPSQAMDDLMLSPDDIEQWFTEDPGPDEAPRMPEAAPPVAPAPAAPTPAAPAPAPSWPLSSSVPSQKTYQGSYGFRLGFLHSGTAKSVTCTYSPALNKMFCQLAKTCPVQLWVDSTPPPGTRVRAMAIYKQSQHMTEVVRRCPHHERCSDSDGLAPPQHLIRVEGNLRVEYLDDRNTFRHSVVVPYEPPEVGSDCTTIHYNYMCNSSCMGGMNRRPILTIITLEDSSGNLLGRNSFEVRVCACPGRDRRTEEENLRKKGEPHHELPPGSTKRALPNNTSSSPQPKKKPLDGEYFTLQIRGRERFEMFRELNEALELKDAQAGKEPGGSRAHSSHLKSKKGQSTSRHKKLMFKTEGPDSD
Inconclusive results are not listed. The source made the active and inactive calls. The calls were made as follows: active = hit-call score of the fitted dose curve at least 0.9, where 1 is the maximum; inconclusive = response in the unintended direction; inactive = score below 0.9.
Labels: 1.0 for active, 0.0 for inactive

compound=C[C@@H]1O[C@@H](OC[C@H]2O[C@@H](Oc3c(-c4ccc(OCCO)c(OCCO)c4)oc4cc(OCCO)cc(O)c4c3=O)[C@H](O)[C@@H](O)[C@@H]2O)[C@H](O)[C@H](O)[C@H]1O assigned_class=0.0
compound="O=S(=O)(O)CC(S)CS (stereo not drawn)" assigned_class=0.0
compound=CC1=C(/C=C/C(C)=C/C=C/C(C)=C/C=C/C=C(C)/C=C/C=C(C)/C=C/C2=C(C)C[C@@H](O)CC2(C)C)C(C)(C)C[C@H](O)C1 assigned_class=1.0
compound=COc1cc(C(=O)NS(=O)(=O)c2ccccc2C)ccc1Cc1cn(C)c2ccc(NC(=O)OC3CCCC3)cc12 assigned_class=1.0
compound=CCCCCCCN assigned_class=0.0
compound=Cc1nc2ccccc2n1Cc1ccc(Cl)cc1 assigned_class=0.0
compound=Oc1ccc(Cl)c2c1CCC2 assigned_class=0.0
compound=C=C(C)C(=O)OCC[N+](C)(C)C assigned_class=0.0
compound=C=C1/C(=C\C=C2/CCC[C@]3(C)[C@@H]([C@H](C)OCCC(C)(C)O)CC[C@@H]23)C[C@@H](O)C[C@@H]1O assigned_class=1.0
compound=O=C(O)c1cc(O)c(O)c(O)c1 assigned_class=0.0
compound="CCNc1nc(NC(C)CC)nc(OC)n1 (stereo not drawn)" assigned_class=0.0
compound=c1cc2ccc3ccc4ccc5cccc6c(c1)c2c3c4c56 assigned_class=1.0
compound=N#Cc1c(N(CC(=O)O)CC(=O)O)sc(C(=O)O)c1CC(=O)O assigned_class=0.0
compound=CCOC(=O)COc1ccc2c(=O)cc(-c3ccccc3)oc2c1 assigned_class=0.0
compound="CC(C)(C(=O)O)c1ccc(C(O)CCCN2CCC(C(O)(c3ccccc3)c3ccccc3)CC2)cc1 (stereo not drawn)" assigned_class=0.0
compound=CC(=O)Nc1ccc(S(=O)(=O)Nc2ccc([N+](=O)[O-])cc2)cc1 assigned_class=0.0
compound=C1C[C@@H]2[C@H]3CC[C@H](C3)[C@@H]2C1 assigned_class=0.0
compound="CC(CNC(=O)c1cccnc1)NC(=O)c1cccnc1 (stereo not drawn)" assigned_class=0.0
compound=O=C(O)c1ccc2cc(O)ccc2c1 assigned_class=0.0
compound=COc1ccc(C(=O)c2ccccc2O)c(O)c1 assigned_class=0.0
compound=Cc1c(NC(C)C)c(=O)n(-c2ccccc2)n1C assigned_class=0.0
compound=NC(=O)c1ccccc1C(N)=O assigned_class=1.0
compound=O=C(O)c1ccc[n+]([O-])c1 assigned_class=0.0
compound=CCCCCCCCCCCCCCCCCCCCCC(=O)Nc1ccn([C@@H]2O[C@H](CO)[C@@H](O)[C@@H]2O)c(=O)n1 assigned_class=1.0
compound=O=c1n(CCCN2CCN(c3cccc(Cl)c3)CC2)nc2ccccn12 assigned_class=0.0
compound=CCCCCCCCCCCCCCC[C@H](O)[C@@H](N)CO assigned_class=0.0
compound=CCN(CC)CCCN(c1ccccc1)C1Cc2ccccc2C1 assigned_class=1.0
compound=CC(C)[C@@H](N)C(=O)O assigned_class=0.0
compound="COC1[C@@H](O[C@@H]2O[C@H](C)[C@@H](O[C@H]3C[C@@](C)(O)[C@H](OC(=O)CC(C)C)[C@H](C)O3)[C@H](N(C)C)[C@H]2O)[C@@H](CC=O)C[C@@H](C)[C@@H](O)/C=C/C=C/C[C@@H](C)OC(=O)C[C@H]1OC(C)=O (stereo partly drawn)" assigned_class=0.0
compound="COCC1=C(C(=O)OC(C)OC(=O)OC(C)C)N2C(=O)[C@@H](NC(=O)/C(=N\\OC)c3csc(N)n3)[C@H]2SC1 (stereo partly drawn)" assigned_class=0.0
compound=NCCNCCO assigned_class=0.0
compound=Cc1c(C(=O)NCCO)[n+](=O)c2ccccc2n1[O-] assigned_class=0.0
compound="NS(=O)(=O)c1cc2c(cc1Cl)NC(C1CC3C=CC1C3)NS2(=O)=O (stereo not drawn)" assigned_class=0.0

---

experiment: CCTE_Shafer_MEA_acute_per_network_burst_spike_number_std: CCTE's Neural Acute Assay for Standard Deviation of Number of Spikes in a Network Burst, Shafer Lab (AID 2284020);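 also: fitted for decrease in spike-number SD versus DMSO so actives lower it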
Active and inactive are the calls of the source. The calls were made as follows: active = hit-call score of the fitted dose curve at least 0.9, where 1 is the maximum; inactive = score below 0.9.
Labels: active, inactive

smiles_representation=O=[N+]([O-])c1cc(S(=O)(=O)Nc2ccccc2)ccc1Nc1ccccc1 assigned_class=active
smiles_representation=CN(C)Cc1cc(C(C)(C)C)c(O)c(C(C)(C)C)c1 assigned_class=active
smiles_representation=Cc1c(C(N)=O)cc([N+](=O)[O-])cc1[N+](=O)[O-] assigned_class=inactive
smiles_representation=COc1ccc(C(=O)c2ccccc2O)c(O)c1 assigned_class=inactive

---

target: Cellular tumor antigen p53 (Homo sapiens); assay: TOX21_p53_BLA_p5_ratio: Tox21 HCT-116 p53 Agonism Beta-lactamase Assay, Ratio, Phase 5 (AID 2283599)
Results filed as inconclusive are left out. Active and inactive are the calls of the source. Rule for the calls: active = hit-call score of the fitted dose curve at least 0.9, where 1 is the maximum; inconclusive = response in the unintended direction; inactive = score below 0.9.
Labels: active, inactive

compound=C=CC(OCC)OCC assigned_class=inactive
compound=Cc1cccc2c1cc1ccc3cccc4ccc2c1c34 assigned_class=active
compound=NCCS(=O)(=O)O assigned_class=inactive
compound=Cc1cc(O)c2ccccc2c1O assigned_class=inactive
compound="CC1=C(O)C(=O)OC1C (stereo not given)" assigned_class=inactive
compound=C#C[C@]1(O)CC[C@H]2[C@@H]3CCC4=C/C(=N/O)CC[C@@H]4[C@H]3CC[C@@]21CC assigned_class=inactive
compound=C[C@]12CCC(=O)C=C1CC[C@@H]1[C@@H]2[C@@H](O)C[C@@]2(C)[C@H]1CC[C@]2(O)C(=O)COP(=O)(O)O assigned_class=inactive
compound=CCCCc1oc2ccc(NS(C)(=O)=O)cc2c1C(=O)c1ccc(OCCCN(CCCC)CCCC)cc1 assigned_class=inactive
compound=CCC(=O)O[C@H]1CC[C@H]2[C@@H]3CCc4cc(O)ccc4[C@H]3CC[C@]12C assigned_class=inactive
compound=COc1cccc(OC)c1C(=O)O assigned_class=inactive
compound=CCCCCC(=Cc1ccccc1)CO assigned_class=inactive
compound=CCN(CC)CCNc1ccc(CO)c2sc3ccccc3c(=O)c12 assigned_class=active
compound=CCOc1ccccc1C(N)=O assigned_class=inactive
compound=CCCCCOC(=O)Nc1nc(=O)n([C@@H]2O[C@H](C)[C@@H](O)[C@H]2O)cc1F assigned_class=inactive
compound=O=C(O)c1cccc(O)c1 assigned_class=inactive
compound=COc1ccccc1Oc1c(NS(=O)(=O)c2ccc(C(C)(C)C)cc2)nc(-c2ncccn2)nc1OCCO assigned_class=inactive
compound=CC[C@H](CC[C@@H](C)[C@H]1CC[C@H]2[C@@H]3CC=C4C[C@@H](O)CC[C@]4(C)[C@H]3CC[C@]12C)C(C)C assigned_class=inactive
compound=CS(=O)(=O)c1ccc([C@@H](O)[C@@H](CO)NC(=O)C(Cl)Cl)cc1 assigned_class=inactive
compound=COc1ccc(N=[N+]([O-])c2ccc(OC)cc2)cc1 assigned_class=inactive
compound=c1ccc(CC2=NCCN2)cc1 assigned_class=inactive

---

target: Cellular tumor antigen p53 (Homo sapiens); assay: TOX21_p53_BLA_p4_ratio: Tox21 HCT-116 p53 Agonism Beta-lactamase Assay, Ratio, Phase 4 (AID 2283601)
Inconclusive results are not listed. Active and inactive are the calls of the source. The calls were made as follows: active = hit-call score of the fitted dose curve at least 0.9, where 1 is the maximum; inconclusive = response in the unintended direction; inactive = score below 0.9.
Outcomes: YES for active, NO for inactive

compound="C=CC(=O)OCC1CC2CC1C1CCC(COC(=O)C=C)C21 (centres undefined)" assigned_class=YES
compound=COc1ccc(CCNC[C@H](O)c2ccc(O)cc2)cc1OC assigned_class=NO
compound=O=C(O)COc1ccc(C(=O)c2cccs2)c(Cl)c1Cl assigned_class=NO
compound=O=C(O)c1cc(O)c(O)c(O)c1 assigned_class=NO

---

target: Cellular tumor antigen p53 (Homo sapiens) (UniProt P04637); assay: TOX21_p53_BLA_p5_ratio: Tox21 HCT-116 p53 Agonism Beta-lactamase Assay, Ratio, Phase 5 (AID 2283599)
Results filed as inconclusive are left out. Activity calls are given as the source filed them. Rule for the calls: active = hit-call score of the fitted dose curve at least 0.9, where 1 is the maximum; inconclusive = response in the unintended direction; inactive = score below 0.9.
PROPERTY_LABEL: outcome

compound=C=C(C)C(=O)OCC(C)(C)COC(=O)C(=C)C property_label=outcome assay_value=inactive
compound="C=C(C)C(=O)OCC1CCCO1 (stereo not drawn)" property_label=outcome assay_value=inactive
compound="Cc1ccc(S(=O)(=O)NC(=O)NN2CC3CCCC3C2)cc1 (stereo not drawn)" property_label=outcome assay_value=inactive

---

assay: ACEA_AR_antagonist_AUC_viability: ACEA Biosciences xCELLigence Real-Time Cell Analysis on Androgen Receptor Antagonism for Viability (AID 2283776);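 also: 22Rv1 human prostate cancer cells growing on impedance electrode plates; area under impedance growth curve at 80 h after dosing as viability; hits lower the growth signal relative to DMSO meaning cytotoxicity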
Records with an inconclusive call do not appear. Activity calls are given as the source filed them. Rule for the calls: active = hit-call score of the fitted dose curve at least 0.9, where 1 is the maximum; inconclusive = response in the unintended direction; inactive = score below 0.9.
Labels: active, inactive

compound=c1ccc(CNc2ncnc3nc[nH]c23)cc1 assigned_class=inactive
compound=Cc1cc(O)cc(C)c1Cl assigned_class=active
compound=O=C(O)c1ccccc1C(=O)O assigned_class=inactive
compound=CC(=O)OC(C)(C)Cc1ccccc1 assigned_class=inactive
compound="CC1=NN(c2cc(Cl)c(S(=O)(=O)O)cc2Cl)C(=O)C1N=Nc1ccc(S(=O)(=O)O)cc1 (centres undefined)" assigned_class=inactive
compound=CCOC(=O)c1ccccc1 assigned_class=inactive
compound=Oc1cccc2ccccc12 assigned_class=inactive
compound=O=C(Oc1ccccc1)c1ccccc1 assigned_class=inactive
compound=Cc1cc(C)c(S(=O)(=O)O)cc1N=Nc1cc(S(=O)(=O)O)c2ccccc2c1O assigned_class=inactive
